# target-of-assay: mTORC2 (Homo sapiens, UniProt P42345+P62942)
# Construct: endogenous in cells; host or cells: PC3 cells (human prostate adenocarcinoma)
# Sequence (P62942 2-108 limits assumed, other chains not shown): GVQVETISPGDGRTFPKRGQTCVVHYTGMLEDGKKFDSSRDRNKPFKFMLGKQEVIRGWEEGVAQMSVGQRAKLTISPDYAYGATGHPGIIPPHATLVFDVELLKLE
# experimental-protocol: Inhibition assay for mTORC2: phosphorylation of pAkt at Ser473, AlphaLISA in PC3 cells
# Format: cell-based
# assay-context: read-out: pIC50 mTORC2 (converted)
outcome-measure: IC50

Known IC50 results, listed for orientation:
COC1C[C@@H]2CC[C@@H](C)[C@@](O)(O2)C(=O)C(=O)N2CCCCC2C(=O)O[C@H]([C@H](C)C[C@@H]2CC[C@@H](OC(=O)NCCc3c[nH]cn3)[C@H](OC)C2)CC(=O)[C@H](C)/C=C(\C)[C@@H](O)[C@@H](OC)C(=O)[C@H](C)C[C@H](C)/C=C/C=C/C=C/1C (stereo partly shown); < 1000 nM
CO[C@@H]1C[C@H](C[C@@H](C)[C@@H]2CC(=O)[C@H](C)/C=C(\C)[C@@H](O)[C@@H](OC)C(=O)[C@H](C)C[C@H](C)/C=C/C=C/C=C(\C)C(SC(C)C)C[C@@H]3CC[C@@H](C)[C@@](O)(O3)C(=O)C(=O)N3CCCCC3C(=O)O2)CC[C@H]1O (stereo partly shown); 1000 to 10000 nM
COC1C[C@@H]2CC[C@@H](C)[C@@](O)(O2)C(=O)C(=O)N2CCCCC2C(=O)O[C@H]([C@H](C)C[C@@H]2CC[C@@H](OCCOCCOCCO)[C@H](OC)C2)CC(=O)[C@H](C)/C=C(\C)[C@@H](O)[C@@H](OC)C(=O)[C@H](C)C[C@H](C)/C=C/C=C/C=C/1C (stereo partly shown); < 1000 nM

Okay, now this molecule:
input: Kindly state the measured IC50 obtained for CO[C@@H]1C[C@H](C[C@@H](C)[C@@H]2CC(=O)[C@H](C)/C=C(\C)[C@@H](O)[C@@H](OC)C(=O)[C@H](C)C[C@H](C)/C=C/C=C/C=C(\C)C(OC3COC3)C[C@@H]3CC[C@@H](C)[C@@](O)(O3)C(=O)C(=O)N3CCCCC3C(=O)O2)CC[C@H]1O (stereo partly shown) with mTORC2 (Homo sapiens, UniProt P42345+P62942).
output: > 10000 nM
